TARGET UNDER TEST: NR1/NR2A (Homo sapiens (Human), UniProt Q05586+Q12879)
Sequence (Q12879 23-1464, other chains not shown): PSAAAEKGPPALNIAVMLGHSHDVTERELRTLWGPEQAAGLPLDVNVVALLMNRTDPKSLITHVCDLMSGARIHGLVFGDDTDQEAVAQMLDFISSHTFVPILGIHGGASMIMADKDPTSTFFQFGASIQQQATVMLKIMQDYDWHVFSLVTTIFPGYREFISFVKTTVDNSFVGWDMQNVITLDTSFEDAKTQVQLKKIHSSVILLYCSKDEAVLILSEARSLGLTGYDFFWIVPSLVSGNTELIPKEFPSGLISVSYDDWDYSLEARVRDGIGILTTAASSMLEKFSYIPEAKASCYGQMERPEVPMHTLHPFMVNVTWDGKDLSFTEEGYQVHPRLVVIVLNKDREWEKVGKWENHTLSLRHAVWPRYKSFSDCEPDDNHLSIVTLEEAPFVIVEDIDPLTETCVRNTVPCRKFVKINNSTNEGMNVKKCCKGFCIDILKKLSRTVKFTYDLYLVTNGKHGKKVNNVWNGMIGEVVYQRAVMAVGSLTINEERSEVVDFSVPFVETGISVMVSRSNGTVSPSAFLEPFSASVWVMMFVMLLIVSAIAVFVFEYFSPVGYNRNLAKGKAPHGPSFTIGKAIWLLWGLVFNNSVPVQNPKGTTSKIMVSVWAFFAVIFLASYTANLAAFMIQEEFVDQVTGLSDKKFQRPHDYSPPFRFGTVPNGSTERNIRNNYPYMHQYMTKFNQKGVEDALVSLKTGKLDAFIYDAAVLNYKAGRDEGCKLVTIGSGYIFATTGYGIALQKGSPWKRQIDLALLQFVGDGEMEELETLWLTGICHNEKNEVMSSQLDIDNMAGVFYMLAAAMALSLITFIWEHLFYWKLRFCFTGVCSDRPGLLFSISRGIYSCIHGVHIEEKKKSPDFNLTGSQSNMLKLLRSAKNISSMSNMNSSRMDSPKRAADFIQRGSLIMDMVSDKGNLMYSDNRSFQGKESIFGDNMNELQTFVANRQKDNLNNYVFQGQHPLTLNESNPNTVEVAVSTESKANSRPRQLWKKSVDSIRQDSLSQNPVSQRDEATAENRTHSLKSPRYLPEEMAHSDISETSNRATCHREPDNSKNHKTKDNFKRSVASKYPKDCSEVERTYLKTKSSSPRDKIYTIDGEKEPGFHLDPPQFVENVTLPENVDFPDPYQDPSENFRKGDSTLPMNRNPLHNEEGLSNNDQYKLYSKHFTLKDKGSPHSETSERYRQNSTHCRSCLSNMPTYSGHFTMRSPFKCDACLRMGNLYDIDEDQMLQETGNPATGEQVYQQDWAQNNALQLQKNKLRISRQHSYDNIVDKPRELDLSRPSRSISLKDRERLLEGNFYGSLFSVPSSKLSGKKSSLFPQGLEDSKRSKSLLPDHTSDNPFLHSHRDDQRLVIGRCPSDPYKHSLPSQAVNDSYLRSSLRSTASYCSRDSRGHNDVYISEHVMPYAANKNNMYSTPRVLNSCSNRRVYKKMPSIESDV
ASSAY: FDSS Ca2+ influx inhibition assay in HEK293 cells expressing NR1/NR2A
Assay type: cell-based
CONDITIONS USED: 3 μM glutamate, 3 μM glycine, 1 mM Ca2+, read-out: Binned Activity
pIC50: −log10 of the molar value.
Give measured pIC50 for each item. Keep answers brief.

Field: example entries. Status: answers known.
Cc1ncsc1CNC(=O)c1ccc(CNS(=O)(=O)c2ccc(F)c(Cl)c2)nc1: < 5.00
Cc1cccc(CNC(=O)c2cnc(CNS(=O)(=O)c3ccc(F)c(Cl)c3)cn2)n1: < 5.00
Cc1ncc(CNC(=O)c2ccc(CNS(=O)(=O)c3ccc(C(F)(F)F)nc3)cn2)s1: < 5.00

Please supply pIC50 for each of the following items, keeping them in order.
1. Cc1ncc(CNC(=O)c2ccc(CNC(=O)c3cc(F)cc(F)c3)cn2)s1
2. Cc1ncc(CNC(=O)c2cnc(CNC(=O)c3cc(Cl)ccc3F)cn2)s1
3. O=C(NC1CCS(=O)(=O)C1)c1cnc(CNS(=O)(=O)c2ccc(F)c(Cl)c2)cn1 (centres unmarked)
4. O=C(NCc1ccccn1)c1cnc(CNS(=O)(=O)c2ccc(F)c(Cl)c2)cn1
5. Cn1cncc1CNC(=O)c1cnc(CNS(=O)(=O)c2ccc(F)c(Cl)c2)cn1

Response:
< 5.00
< 5.00
< 5.00
< 5.00
5.00 to 6.00

Please supply pIC50 for each of the following items, keeping them in order.
1. Cc1ncc(CNC(=O)c2ccc(CNS(=O)(=O)c3ccc(-c4csnn4)cc3)cn2)s1
2. CC(NC(=O)c1ccc(CNS(=O)(=O)c2ccc(F)c(Cl)c2)nn1)c1cccs1 (centres unmarked)
3. CN(C)CCCNC(=O)c1ccc(CNS(=O)(=O)c2ccc(F)c(Cl)c2)nc1
4. CCc1nc(C(=O)NCc2cnc(C)s2)cnc1CNS(=O)(=O)c1ccc(F)c(Cl)c1
5. O=C(NCc1cccnc1)c1ccc(CNS(=O)(=O)c2ccc(F)c(Cl)c2)nn1
6. Cc1ccc(CNC(=O)c2ccc(CNS(=O)(=O)c3ccc(F)c(Cl)c3)nc2)s1

Response:
1. < 5.00
2. < 5.00
3. < 5.00
4. > 7.00
5. < 5.00
6. < 5.00

Please supply pIC50 for each of the following items, keeping them in order.
1. Cc1ncc(CNC(=O)c2cnc(CNC(=O)c3cccc(Cl)c3C)c(C)n2)s1
2. O=C(NCc1cccnc1)c1ccc(CNS(=O)(=O)c2ccc(F)c(Cl)c2)nc1

Response:
1: < 5.00; 2: < 5.00
